biological target: hE1 for Nedd8 (APPBP1-UBA3) (Homo sapiens, UniProt Q8TBC4); construct: made in house; host or cells: E. coli; test: ITC binding of Ubc12 peptides to hE1; conditions: ITC; protein hE1, titrant Ubc12 peptide
Sequence (Q8TBC4 22-463 limits assumed): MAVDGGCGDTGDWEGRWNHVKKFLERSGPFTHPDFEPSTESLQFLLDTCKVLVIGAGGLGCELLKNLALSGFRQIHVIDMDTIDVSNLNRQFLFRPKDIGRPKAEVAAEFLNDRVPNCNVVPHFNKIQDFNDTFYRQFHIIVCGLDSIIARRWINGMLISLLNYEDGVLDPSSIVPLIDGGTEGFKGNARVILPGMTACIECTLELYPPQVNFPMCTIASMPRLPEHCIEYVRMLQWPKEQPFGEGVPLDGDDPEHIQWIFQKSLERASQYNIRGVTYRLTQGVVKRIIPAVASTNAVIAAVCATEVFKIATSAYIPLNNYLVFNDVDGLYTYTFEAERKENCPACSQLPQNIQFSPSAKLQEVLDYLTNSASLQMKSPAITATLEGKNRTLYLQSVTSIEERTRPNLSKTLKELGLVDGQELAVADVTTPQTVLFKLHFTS
Sequence (Q13564 whole entry partner): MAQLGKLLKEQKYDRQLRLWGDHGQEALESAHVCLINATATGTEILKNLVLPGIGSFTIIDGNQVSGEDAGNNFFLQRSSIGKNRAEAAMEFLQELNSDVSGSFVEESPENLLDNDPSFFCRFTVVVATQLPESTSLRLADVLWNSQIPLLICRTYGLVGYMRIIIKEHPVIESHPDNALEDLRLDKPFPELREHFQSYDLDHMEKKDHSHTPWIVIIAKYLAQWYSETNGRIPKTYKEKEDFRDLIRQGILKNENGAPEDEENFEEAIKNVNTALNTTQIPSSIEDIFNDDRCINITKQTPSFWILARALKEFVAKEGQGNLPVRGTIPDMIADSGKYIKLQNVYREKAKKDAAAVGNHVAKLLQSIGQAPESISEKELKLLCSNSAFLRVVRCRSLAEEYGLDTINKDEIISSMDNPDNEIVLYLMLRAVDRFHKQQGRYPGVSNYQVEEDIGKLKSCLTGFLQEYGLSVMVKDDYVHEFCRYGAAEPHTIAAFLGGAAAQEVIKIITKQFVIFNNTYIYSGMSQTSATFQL
value kind: pKd
Just the number, please; pKd means minus log10 of the concentration in mol/L.

Query: Fill in: pKd of H-MIKLFSLKQQKKEEESAGGTKGSSKK-NH2 [hUbc12^1-26] is ___
Result: 6.23

Query: Report pKd for Ac-MIKLFSLKQQKKEEESAGGTKGSSKK-NH2 [Acetyl-hUbc12^1-26] please.
Result: 6.03

Query: Given Ac-IKLFSLKQQKKEEESAGGTKGSSKK-NH2 [Acetyl-hUbc12^2-26] , state its recorded pKd.
Result: 6.41

* * *

Target: hDcn5^P (Homo sapiens, UniProt Q9BTE7)
Construct: human Dcn1 family members 1-5 (also called DCUND1-DCUND5)
Sequence (Q9BTE7 47-237): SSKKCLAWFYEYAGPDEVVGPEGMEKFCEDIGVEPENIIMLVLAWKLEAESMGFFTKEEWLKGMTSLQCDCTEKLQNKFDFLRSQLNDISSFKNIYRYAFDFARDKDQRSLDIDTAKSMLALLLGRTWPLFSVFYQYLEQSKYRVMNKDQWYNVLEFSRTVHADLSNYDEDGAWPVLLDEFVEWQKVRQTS
Assay: ITC binding of peptides to hDcn5^P
Conditions: Table 29, peptides with amidated carboxy-terminus
pKd: −log10 of the molar value.
value kind: pKd

Query: What does the record list as pKd for Ac-MLTLASKLKRDDGLKGSRTAATASD-NH2 [hUbe2f^Ac1−25] ?
Result: < 4.52

These measurements were taken from patent US9447156B2.
